Hey, just so you know, these numbers are from patent US8288371B2.

Target chain: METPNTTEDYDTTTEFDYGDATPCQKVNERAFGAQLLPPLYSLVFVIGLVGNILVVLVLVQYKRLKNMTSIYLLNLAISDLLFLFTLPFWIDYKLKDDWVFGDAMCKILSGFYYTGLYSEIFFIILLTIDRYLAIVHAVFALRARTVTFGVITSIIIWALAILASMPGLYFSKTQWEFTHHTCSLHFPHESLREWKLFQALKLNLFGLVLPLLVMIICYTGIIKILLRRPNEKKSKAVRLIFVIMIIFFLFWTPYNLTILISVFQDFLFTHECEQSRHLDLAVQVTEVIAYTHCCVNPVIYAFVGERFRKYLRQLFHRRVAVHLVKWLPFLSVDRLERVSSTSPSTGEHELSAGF
pIC50: −log10 of the molar value.
Task for the reader: assign each of the following molecules its reported pIC50.

// solved cases for pIC50 follow
COCc1nnc([C@H]2CCCN2C(=O)Nc2ccc(Cl)cc2F)n1Cc1ccc(Cl)cc1; 5.30 to 6.30
Cc1cc(C)c(S(=O)(=O)N(C)C)cc1NC(=O)N1CCC[C@@H]1c1nnc(C)n1Cc1ccc(Cl)cc1; > 7.30
Cc1nc(C(F)(F)F)ccc1NC(=O)N1CC(F)C[C@@H]1c1nnc(C)n1Cc1ccc(Cl)cc1 (stereo partly shown); > 7.30
Cc1nnc([C@H]2CCCN2C(=O)N[C@H]2CCOc3c2cccc3C(F)(F)F)n1Cc1ccc(Cl)cc1; > 7.30
Cc1nnc([C@H]2CCCN2C(=O)Nc2ccc(Cl)c(C(F)(F)F)c2)n1Cc1ccc(Cl)cc1; 6.30 to 7.30
Cc1noc(C)c1NC(=O)N1CCC[C@@H]1c1nnc(C)n1[C@@H](C)c1ccc(Cl)cc1; 5.30 to 6.30

Consider the additional molecule presented here.
Give the reported pIC50 for this molecule. Cc1nnc([C@H]2CC(F)CN2C(=O)Nc2ccc(Cl)c(C(F)(F)F)c2)n1Cc1ccc(Cl)cc1 (stereo partly shown)
6.30 to 7.30

----------
# test-target: human CCR1 (Homo sapiens)
# Sequence (P32246 1-355): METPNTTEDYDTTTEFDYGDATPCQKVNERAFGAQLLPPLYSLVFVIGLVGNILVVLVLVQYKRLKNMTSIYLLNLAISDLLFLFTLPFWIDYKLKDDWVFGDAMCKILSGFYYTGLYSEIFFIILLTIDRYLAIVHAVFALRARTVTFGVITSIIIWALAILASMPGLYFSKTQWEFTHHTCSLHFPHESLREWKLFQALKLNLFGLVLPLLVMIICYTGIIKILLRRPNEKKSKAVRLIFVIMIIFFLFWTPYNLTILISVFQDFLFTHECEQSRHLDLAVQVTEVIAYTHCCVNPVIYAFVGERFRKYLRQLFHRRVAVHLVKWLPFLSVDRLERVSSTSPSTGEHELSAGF
Task for the reader: assign each of the following molecules its reported IC50.

Cc1noc(C)c1NC(=O)N1CCC[C@@H]1c1nnc(C)n1Cc1ccc(Br)cc1; 50 to 500 nM

Value sought for every listed molecule: IC50.
1. Cc1noc(C)c1NC(=O)N1CCC[C@@H]1c1noc(C)c1Cc1ccc(Cl)cc1
2. Cc1nnc([C@H]2CCCN2C(=O)Nc2ccccn2)n1Cc1ccc(Cl)cc1
3. CC[C@H](N/C(=C/[N+](=O)[O-])N1CCC[C@@H]1c1nnc(C)n1Cc1ccc(Cl)cc1)c1ccc(C(F)(F)F)nc1
4. O=C(N[C@H]1CCOc2cc(Cl)ccc21)N1CCC[C@@H]1c1nncn1Cc1ccc(Cl)cc1
5. Cc1cccc(C(=O)N(C)C)c1NC(=O)N1CCC[C@@H]1c1nnc(C)n1Cc1ccc(Cl)cc1

1: 50 to 500 nM; 2: 500 to 5000 nM; 3: < 50 nM; 4: < 50 nM; 5: 50 to 500 nM

Value sought for every listed molecule: IC50.
1. Cc1nnc([C@H]2CCCN2C(=O)N[C@@H](C)c2cc3cc(Cl)ccc3o2)n1Cc1ccc(Cl)cc1
2. Cc1nnc([C@H]2CCCN2C(=O)Nc2cc(C(=O)N(C)C)ccc2C(F)(F)F)n1Cc1ccc(Cl)cc1

["< 50 nM", "50 to 500 nM"]
